- testDescription: Inhibitory effect on transwell chemotaxis induced by 1 nM MIP-1alpha in mouse pre-B cells transfected with human CCR1
readoutType: IC50 (nM)
// return numeric value only (unit: nM, not printed)

# input I am curious: what IC50 value has been reported for COc1cc(/C=C/C(=O)N2C3CCC2CN(Cc2ccc(F)cc2)C3)c(NC(C)=O)cc1Cl ?
# output 7.5

---

- systemUnderTest: C-C chemokine receptor type 1 (Rattus norvegicus)
- testDescription: Antagonistic activity at rat CCR1 in CHO-K1 cells
For each record, write down the corresponding pIC50.
Friendly reminder that pIC50 comes from taking -log10 of the concentration in mol/L.

# input Recorded pIC50 of CC(=O)Nc1cc2ncccc2cc1/C=C/C(=O)N1C2CCC1CN(Cc1ccc(F)cc1)C2 , please.
# output 8.22

# input // query pIC50 value for entry CN(C)CC(=O)Nc1cc(Cl)ccc1/C=C/C(=O)N1C2CCC1CN(Cc1ccc(F)cc1)C2
# output 8.00

# input Can you share its pIC50? I mean this compound: CC(=O)Nc1cc2ccccc2cc1/C=C/C(=O)N1CCN(Cc2ccc(F)cc2)C[C@H]1C
# output 5.82

# input pIC50 for CC(=O)Nc1cc2ncccc2cc1/C=C/C(=O)N1CCN(Cc2ccc(F)cc2)C[C@H]1C ?
# output 6.52

# input What pIC50 value was documented for this compound, COc1cc(/C=C/C(=O)N2C3CCC2CN(Cc2ccc(F)cc2)C3)c(NC(C)=O)cc1Cl ?
# output 9.00
